# reported Maximum fold over Control (collagen synthesis); entries follow
Tested on: Neonatal human dermal fibroblasts
assay protocol: Collagen synthesis (secreted procollagen 1 immunoassay)
Type: cell-based
settings: 0.2 to 20 mM, 48 hours, serum-free medium
property: Maximum fold over Control (collagen synthesis) (fold)

{"columns": ["compound", "unit descriptor", "test value"],
 "data": [
  ["O=C(O)CC(=O)C(=O)O [Oxaloacetate]", "fold", 3.0],
  ["N[C@@H](CCC(=O)O)C(=O)O [Glutamate]", "fold", 3.6],
  ["O=C(O)CCC(=O)C(=O)O [Ketoglutarate]", "fold", 2.2],
  ["CC(=O)O [Acetate]", "fold", 2.0],
  ["O=C(O)CCC(=O)O [Succinate]", "fold", 2.8],
  ["NC(=O)C(=O)O [Oxamate]", "fold", 1.4]
]}
